Provide the reported Plant response rating, B. signalgrass of each item.
Tested on: surinam grass
experiment description: Test B pre/postemergence surinam grass
Assay type: in vivo, Brachiaria decumbens
run conditions: Preemergence, Rate 125 g/ha; scale 0 to 10 (0 no effect, 10 complete control)

Memo: Cc1ccccc1-n1c(=O)on(C(=O)N(Cc2ccccc2)C(C)C)c1=O [Compound 72] , reported Plant response rating, B. signalgrass: 0

Memo: CCc1ccccc1-n1c(=O)on(C(=O)N(c2ccc(F)cc2)C(C)C)c1=O [Compound 34] , reported Plant response rating, B. signalgrass: 1

Memo: CC(C)N(C(=O)n1oc(=O)n(-c2ccc(Cl)cc2C(F)(F)F)c1=O)c1ccc(F)cc1 [Compound 20] , reported Plant response rating, B. signalgrass: 0

Memo: CC(C)N(C(=O)n1oc(=O)n(-c2cc(Cl)ccc2Cl)c1=O)c1ccc(F)cc1 [Compound 16] , reported Plant response rating, B. signalgrass: 0

---

Provide the reported Plant response rating, Rape of each item.
Test system: rape
experiment description: Test B pre/postemergence rape
Format: in vivo, Brassica napus
run conditions: Preemergence, Rate 125 g/ha; scale of 0 to 10 where 0 is no effect and 10 is complete control
Answer with the value's number alone.

Memo: CC(C)N(C(=O)n1oc(=O)n(C(C)C(=S)N(C)C)c1=O)c1ccc(Cl)cc1 (stereo not shown) [Compound 733] , reported Plant response rating, Rape: 0

Memo: CCC=CCn1c(=O)on(C(=O)N(c2ccccc2)C(C)C)c1=O [Compound 454] , reported Plant response rating, Rape: 0

Memo: Cc1nc(Cl)sc1C(C)n1c(=O)on(C(=O)N(c2ccccc2)C(C)C)c1=O (stereo not shown) [Compound 407] , reported Plant response rating, Rape: 0

Memo: CC(C)N(C(=O)n1oc(=O)n(CC2CCC2)c1=O)c1ccc(F)cc1 [Compound 403] , reported Plant response rating, Rape: 1

---

Tested on: corn
experiment description: Test B pre/postemergence corn
Format: in vivo, Zea mays
run conditions: Rate 250 g/ha, Postemergence; scale of 0 to 10 where 0 is no effect and 10 is complete control
Provide the reported Plant response rating, Corn of each item.

Memo: `CCCCCCn1c(=O)on(C(=O)N(c2ccccc2)C(C)C)c1=O` , reported Plant response rating, Corn: 0

Memo: `CCOCn1c(=O)on(C(=O)N(c2ccc(Cl)cc2)C(C)C)c1=O` , reported Plant response rating, Corn: 0

Memo: `CCN(C(=O)n1oc(=O)n(N(C)C)c1=O)C1CCCCC1` , reported Plant response rating, Corn: 0

Memo: `CC(C)N(C(=O)n1oc(=O)n(CC(C)(C)C)c1=O)c1ccccc1` , reported Plant response rating, Corn: 0

Memo: `COC(=O)CCCn1c(=O)on(C(=O)N(c2ccc(Cl)cc2)C(C)C)c1=O` , reported Plant response rating, Corn: 0

---

Provide the reported Giant foxtail plant response rating of each item.
Test system: giant foxtail
experiment description: Test B pre/postemergence giant foxtail
Type: in vivo, Setaria faberii
run conditions: Rate 125 g/ha; Postemergence; scale 0 to 10, 0 no effect, 10 complete control
Answer with the value's number alone.

Memo: CC(C)N(C(=O)n1oc(=O)n(-c2cc(Cl)ccc2Cl)c1=O)c1ccc(F)cc1 [Compound 16] , reported Giant foxtail plant response rating: 0

Memo: Cc1cccc(C)c1-n1c(=O)on(C(=O)N(Cc2ccccc2)C(C)C)c1=O [Compound 69] , reported Giant foxtail plant response rating: 0

Memo: Cc1ccccc1-n1c(=O)on(C(=O)N(c2ccccc2)C(C)C)c1=O [Compound 36] , reported Giant foxtail plant response rating: 3

Memo: CC(C)N(C(=O)n1oc(=O)n(-c2ccc(Cl)cc2C(F)(F)F)c1=O)c1ccc(F)cc1 [Compound 20] , reported Giant foxtail plant response rating: 0

Hello, the source for this data is patent US6737383B1, in case you need it.
